Tested on: 171881-019-R-J1-PDC complex spheroid viability;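 note: spheroids exposed to agents for 7 days after 3 days growth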
assay comment: Anticancer human tumor 171881-019-R-J1-PDC patient-derived invasive breast carcinoma cell line growth inhibition
condition details: second compound 0.316 µM; first compound 0.0316 µM; active compounds read low
Text: Multicellular complex tumor spheroid response to LSD1 Inhibitor Iadademstat in combination with a variety of drugs and investigational agents in selected tumor cell lines The current study was undertaken to assess response to LSD1 inhibitors in combination with standard-of-care drugs and investigational agents in solid tumor complex spheroid models as well as in the K-562 leukemia. […] Compounds. […] If the clinical Cmax for an agent had not been determined, the highest concentration tested was 10 microM. […]
Lab note: compare viability, T/C with 80%, writing 1 if less and -1 if equal or more.

Check out these entries, answers already filled in.
| molecule | class label |
| --- | --- |
| Nc1ncn(C2CC(O)C(CO)O2)c(=O)n1 (stereo not drawn) + NC1CC1c1ccc(-c2cccc(O)c2)cc1 | -1 |
| COc1cc(Nc2ncc3c(n2)-c2ccc(Cl)cc2C(c2c(F)cccc2OC)=NC3)ccc1C(=O)O + NC1CCC(NC2CC2c2ccccc2)CC1 | -1 |

Shift focus to the following entry.
**Query** Is viability, T/C strictly under 80% for the entry CC[C@@]1(O)C(=O)OCc2c1cc1n(c2=O)Cc2cc3c(CN(C)C)c(O)ccc3nc2-1 + NC1CCC(NC2CC2c2ccccc2)CC1 ?
**Result** 1
